meta.source: BigSolDB 2.1

Details: in isopentanol, 298.15 K
experimentalEndpoint: solubility (mole fraction)
The reply should be a number, written without any unit.

# input molecule: Oc1ccc([C@@H]2COc3cc(O)ccc3C2)cc1 ; wanted: its solubility (mole fraction)
0.0447

* * *

Conditions: in n-pentanol, 308.15 K
experimentalEndpoint: solubility (mole fraction)
Lab note: jot down the number only; don't add units.

Which value of solubility (mole fraction) has been reported for Oc1ccc([C@@H]2COc3cc(O)ccc3C2)cc1 in the records?
0.0616

* * *

Settings: in n-pentanol, 323.15 K
experimentalEndpoint: solubility (mole fraction)
Quick one: just the number, no unit, thanks!

What value of measured solubility (mole fraction) is listed for Oc1ccc([C@@H]2COc3cc(O)ccc3C2)cc1 ?
0.0874
